Reported TGI values for a set of compounds
# System: K-562 leukemia
# Protocol details: NCI tumour cell line growth inhibition, 48 h
Observable: TGI

compound=COc1ccc2c(c1)C(=O)c1ccc(OC)cc1C2=S system_tested="K-562 leukemia" endpoint_result="> 100 µM"
compound="CCC1(c2ccccc2)Sc2ccccc2-n2cccc2C1=O (stereo not given)" system_tested="K-562 leukemia" endpoint_result="> 10 µM"
compound=O=C(Nc1ccc(Br)cc1F)c1cc(I)ccc1O system_tested="K-562 leukemia" endpoint_result="> 100 µM"
compound="CC(NC(=O)C(NC(=O)CNC(=O)OC(C)(C)C)C(C)C)C(=O)Oc1c(Cl)c(Cl)c(Cl)c(Cl)c1Cl (stereo not given)" system_tested="K-562 leukemia" endpoint_result="> 100 µM"
compound=CC1=NN(C(=O)c2ccccc2O)C(=O)/C1=C/c1ccc(O)cc1 system_tested="K-562 leukemia" endpoint_result="> 100 µM"
compound=O=C(Nc1cccc(-n2cc(-c3ccncc3)c(-c3ccc(Cl)c(O)c3)n2)c1)Nc1cc(C(F)(F)F)cc(C(F)(F)F)c1 system_tested="K-562 leukemia" endpoint_result="2.98 µM"
compound="O=S(Nc1ccccc1)c1ccc(N2CCOCC2)cc1 (stereo not given)" system_tested="K-562 leukemia" endpoint_result="> 100 µM"
compound="Cc1ccccc1C1OC(=O)c2ccc3ccccc3c21 (stereo not given)" system_tested="K-562 leukemia" endpoint_result="19.5 µM"
compound="O=C1OCC2=C1C(c1cccc(Cl)c1)c1cc3c(cc1N2CCO)OCCO3 (stereo not given)" system_tested="K-562 leukemia" endpoint_result="> 45.7 µM"
compound=CCCCCCC[CH2][Sn]([CH2]CCCCCCC)([O]c1cccc2cccnc12)[O]c1cccc2cccnc12 system_tested="K-562 leukemia" endpoint_result="3.86 µM"

----------
# Test system: K-562 leukemia
# Protocol details: NCI tumour cell line growth inhibition, 48 h; in the data active = GI50 below about 0.43 µM; inactive = the rest
Outcome codes: 1 = active, 0 = inactive

molecule=COc1cc(C(=O)c2c(-c3ccccc3)oc3c(OC)cccc23)cc(OC)c1OC class_name=1
molecule=COc1ccc2c(CN3CCCC[C@H]3C(=O)O)cc3cc4c(cc3c2c1)OCO4 class_name=0
molecule=O=C1c2cc3c(cc2[C@@H]2[C@H]1c1ccc([N+](=O)[O-])cc1C(=O)N2CCCBr)OCO3 class_name=1
molecule=Cc1cc(NCCCN(C)C)c2ccc3c(ccc4c(NCCCN(C)C)cc(C)nc43)c2n1 class_name=0
molecule="CC1=C(C(=O)Nc2ccc3n[nH]c(C)c3c2)C(c2ccc(C(F)(F)F)cc2)CC(=O)N1 (stereo unspecified)" class_name=0
molecule="Cc1ccccc1OCC(O)CN1CCN(c2ccc(Cl)cc2)CC1 (stereo unspecified)" class_name=0
molecule=Cc1cc2c(C(C)C)c(O)c(O)cc2c(O)c1-c1c(C)cc2c(C(C)C)c(O)c(O)cc2c1O class_name=0
molecule="Cc1cc2c(cc1Cl)SC1=NN(C)C(C)N1S2(=O)=O (stereo unspecified)" class_name=0
molecule=Cc1[nH]c2ccccc2c1CCCO class_name=0
molecule=NCCCC[C@@H]1NC(=O)[C@H]2CCCN2C(=O)[C@H](Cc2ccccc2)CNC(=O)[C@H](Cc2ccccc2)NC1=O class_name=0
molecule=CC(=O)[CH-]C(=O)c1ccccc1.CC(=O)[CH-]C(=O)c1ccccc1.CC[O-].CC[O-].[Hf+4] class_name=0
molecule="O=C1OCC2=C1C(c1cccc(Cl)c1)c1cc3c(cc1N2CCO)OCCO3 (stereo unspecified)" class_name=1
molecule=CSC1=C(N)C(=O)c2[nH]cc(CO)c2C1=N class_name=1
molecule=Cc1cccc(/C=N/NC(=S)N2CCCC2)n1 class_name=1
molecule=CCCCCCC[CH2][Sn]([CH2]CCCCCCC)([O]c1cccc2cccnc12)[O]c1cccc2cccnc12 class_name=0
molecule=Cn1ncnc1[C@H]1c2n[nH]c(=O)c3cc(F)cc(c23)N[C@@H]1c1ccc(F)cc1 class_name=0

----------
# Test system: CAKI-1 renal
# Protocol details: NCI tumour cell line growth inhibition, 48 h; in the data active = GI50 below about 0.43 µM; inactive = the rest
Outcome codes: active, inactive

compound=Cc1c(C(=O)Nc2ccccc2)sc2ncn(Cc3cccc(Cl)c3)c(=O)c12 system_tested="CAKI-1 renal" class_name=inactive
compound=C[C@H]1CC[C@@]2(NC1)O[C@H]1C[C@H]3[C@@H]4CC[C@H]5C[C@@H](O)CC[C@]5(C)[C@H]4CC[C@]3(C)[C@H]1[C@@H]2C system_tested="CAKI-1 renal" class_name=inactive
compound=COc1cc(C(=O)c2c(-c3ccccc3)oc3c(OC)cccc23)cc(OC)c1OC system_tested="CAKI-1 renal" class_name=active
compound="Cc1ccccc1OCC(O)CN1CCN(c2ccc(Cl)cc2)CC1 (centres undefined)" system_tested="CAKI-1 renal" class_name=inactive
compound=NS(=O)(=O)c1ccc(/C=C/c2ccc(F)cc2)cc1 system_tested="CAKI-1 renal" class_name=inactive
compound=O=C(/C=C/Sc1cc(C(F)(F)F)cc(C(F)(F)F)c1)c1ccc(Cl)cc1 system_tested="CAKI-1 renal" class_name=inactive
compound="C#CC#CC#CC#CC#CC#CC#CC#CCC1OCC(COC(=O)O[C@@H](C(=O)O[C@H]2C[C@@]3(O)[C@@H](OC(=O)c4ccccc4)[C@@H]4[C@]5(OC(C)=O)CO[C@@H]5C[C@H](O)[C@@]4(C)C(=O)[C@H](OC(C)=O)C(=C2C)C3(C)C)[C@@H](NC(=O)c2ccccc2)c2ccccc2)O1 (some centres undefined)" system_tested="CAKI-1 renal" class_name=inactive
compound=C=C(C)[C@@H]1CC[C@]2(C(=O)N[C@H](CO)Cc3ccccc3)CC[C@]3(C)[C@H](CC[C@@H]4[C@@]5(C)CCCNC(C)(C)[C@@H]5CC[C@]43C)[C@@H]12 system_tested="CAKI-1 renal" class_name=inactive
compound=Cc1c(Cl)cccc1C(=O)Nc1nc2c(s1)CN(C(=O)c1ccc(C(F)(F)F)cc1)CC2 system_tested="CAKI-1 renal" class_name=active

----------
# System: T-47D breast
# Protocol details: NCI tumour cell line growth inhibition, 48 h
Observable: TGI

compound="CN(C)CCN1C(=O)c2c(c3c4ccccc4n4c3c3c2c2ccccc2n3C2CC(O)C(O)C4(C)O2)C1=O (centres undefined)" endpoint_result="12.1 µM"
compound=Cc1cc(S(=O)(=O)N/C(=C(\C#N)C(=O)c2ccc(Cl)cc2)[n+]2ccc(N(C)C)cc2)c([S-])cc1Cl endpoint_result="> 100 µM"
compound=COC(=O)c1cc(=O)[nH]c(=O)[nH]1 endpoint_result="> 100 µM"
compound="C[N+](C)(C)c1ccc(C(N)C(=O)O)cc1 (centres undefined)" endpoint_result="> 100 µM"
compound=O=C(Nc1ccc(Br)cc1F)c1cc(I)ccc1O endpoint_result="6.35 µM"
compound="COC1CC(O[C@H]2CC[C@@]3(C)[C@H](CC[C@@H]4[C@@H]3CC[C@]3(C)[C@@H](C5=CC(=O)OC5)[C@@H](OC(C)=O)C[C@]43O)C2)OC(C)C1O (some centres undefined)" endpoint_result="< 0.01 µM"
compound=CCOP(=O)(/C=C\n1cc(C)c(=O)[nH]c1=O)OCC endpoint_result="> 100 µM"
compound=O=C(Nc1cccc(-n2cc(-c3ccncc3)c(-c3ccc(Cl)c(O)c3)n2)c1)Nc1cc(C(F)(F)F)cc(C(F)(F)F)c1 endpoint_result="8.93 µM"
compound=COc1ccc2c(c1)c(CC(=O)[Se]C)c(C)n2C(=O)c1ccc(Cl)cc1 endpoint_result="> 1 µM"

----------
Reported TGI values for a set of molecules
# Tested on: HCC-2998 colon
# Protocol details: NCI tumour cell line growth inhibition, 48 h
Observable: TGI (µM)

smiles_input=COc1cc([C@@H]2c3cc4c(cc3[C@@H](c3c(O)cc(O)c5c3O[C@H](c3ccc(O)c(O)c3)[C@@H](O)C5)[C@H]3COC(=O)[C@H]23)OCO4)cc(OC)c1OC limit_qualifier== endpoint_result=3.48
smiles_input=Cc1ccc(/C(O)=C/c2nc3ccccc3sc2=O)c(C)c1 limit_qualifier=> endpoint_result=100
smiles_input=OC1(c2ccccc2)CCN(Cc2c[nH]c3ccccc23)CC1 limit_qualifier== endpoint_result=31.6
smiles_input=CCOC(=O)CC[C@H](NC(=O)c1nc[nH]c1[N+](=O)[O-])C(=O)OCC limit_qualifier=> endpoint_result=100
smiles_input=Cc1ccc(C(N)=O)cc1N=NN(C)C limit_qualifier=> endpoint_result=100

----------
# System: MDA-MB-435
# Protocol details: NCI tumour cell line growth inhibition, 48 h
Observable: TGI

compound="O=C1NC(=O)C(C(CC(=O)c2ccc([N+](=O)[O-])cc2)c2ccccc2)C(=O)N1 (stereo unspecified)" endpoint_result="> 100 µM"
compound=CC(C)CNc1nc2ncnc(N)c2[nH]1 endpoint_result="> 100 µM"
compound="CCCCOC(=O)C(NC(C(=O)OCCCC)c1cc(C(C)(C)C)c(O)c(C(C)(C)C)c1)c1cc(C(C)(C)C)c(O)c(C(C)(C)C)c1 (stereo unspecified)" endpoint_result="> 100 µM"
compound=Cc1c(Cl)cccc1C(=O)Nc1nc2c(s1)CN(C(=O)c1ccc(C(F)(F)F)cc1)CC2 endpoint_result="0.0521 µM"
compound="CC(C)CCCC(C)[C@H]1CCC2[C@@H]3CCC4Cc5nc6c(nc5C[C@]4(C)C3CC[C@@]21C)CC1CC[C@@H]2C(CC[C@@]3(C)C2CC[C@@H]3C(C)CCCC(C)C)[C@@]1(C)C6 (stereo partly specified)" endpoint_result="> 100 µM"
compound=O=c1[nH]nc(-c2ccccc2)n1/N=C\c1ccccc1 endpoint_result="> 100 µM"
compound="COC1CC(O[C@H]2CC[C@@]3(C)[C@H](CC[C@@H]4[C@@H]3CC[C@]3(C)[C@@H](C5=CC(=O)OC5)[C@@H](OC(C)=O)C[C@]43O)C2)OC(C)C1O (stereo partly specified)" endpoint_result="< 0.0109 µM"
compound=COc1ccc(C/C(C)=C(/c2ccc(OCCN3CCCCC3)cc2)c2ccc(OC(=O)NCc3ccccc3)cc2)cc1 endpoint_result="0.736 µM"
compound="CCOC(=O)CCC(NC(=O)OCc1ccccc1)C(=O)NC(CCC(=O)OCC)C(=O)NC(CCC(=O)OCC)C(=O)NC(CCC(=O)OCC)C(=O)NC(CCC(=O)OCC)C(=O)NC(CCC(=O)OCC)C(=O)NC(CCC(=O)OCC)C(=O)OCC (stereo unspecified)" endpoint_result="> 100 µM"
compound=COc1cc2c(cc1OC)[C@H](C)N1CCc3cc(OC)c(OC)cc3[C@@H]1C2 endpoint_result="> 100 µM"
compound="COC(=O)C1CCC(=S)N1C(=O)c1ccccc1 (stereo unspecified)" endpoint_result="> 100 µM"
compound="CCCC(=O)NC(Nc1ccc(S(=O)(=O)Nc2cc(C)on2)cc1)(C(=O)OCC)C(F)(F)F (stereo unspecified)" endpoint_result="> 100 µM"
compound=Cc1ccc(S(=O)(=O)c2c(COC(=O)c3cccc(C)c3)c(-c3ccccc3)nn2C)cc1 endpoint_result="> 100 µM"
compound=CCOP(=O)(/C=C\n1cc(C)c(=O)[nH]c1=O)OCC endpoint_result="> 100 µM"
compound="COc1ccc(C2=Nc3cc(C)c(C)cc3NC(c3ccccc3)C2)cc1 (stereo unspecified)" endpoint_result="> 100 µM"
compound="Cc1cc(NC(=O)NC(=O)c2ccccc2NC(=O)C(C)N)ccc1Oc1ncc(Br)cn1 (stereo unspecified)" endpoint_result="0.257 µM"
compound=CC(=C(c1ccccc1)c1ccccc1)N1C(=O)CC(=O)N1C endpoint_result="> 100 µM"
compound=Cn1ncnc1[C@H]1c2n[nH]c(=O)c3cc(F)cc(c23)N[C@@H]1c1ccc(F)cc1 endpoint_result="> 100 µM"
compound="CC(=O)OCC1OC(SC2=N/C(=C\\c3ccc(Br)s3)C(=O)N2CN2CCOCC2)C(OC(C)=O)C(OC(C)=O)C1OC(C)=O (stereo unspecified)" endpoint_result="> 100 µM"
compound=C/C(O)=C(/C=N/C(=S)Nc1ccc(S(N)(=O)=O)cc1)C(=O)Nc1ccccc1C endpoint_result="> 100 µM"
compound="COC(=O)C1(Cc2ccc3c(c2)CCC3)Cc2ccccc2C1O (stereo unspecified)" endpoint_result="36.7 µM"
compound="Cc1ccc(OCC2OC(n3cnc4nc(N)nc(Cl)c43)CC2Oc2ccc(C)cc2)cc1 (stereo unspecified)" endpoint_result="> 100 µM"
compound=N#C/C(=C\c1ccsc1)c1nc2ccccc2o1 endpoint_result="> 100 µM"
compound=OCCO/N=C1\C(c2c(O)[nH]c3ccccc23)=Nc2ccccc21 endpoint_result="> 100 µM"
compound="NC(=O)N/N=C1/CCC(O)CC1CC(=O)O (stereo unspecified)" endpoint_result="> 100 µM"
compound=CN(C)c1nc(N)nc(CS)n1 endpoint_result="> 100 µM"

Taken from PubChem BioAssay (NCI).
